Values were extracted from paper PMC12684391.

# System: DLD-1 cells
# protocol.details: Cell viability assay (AlamarBlue), 7 days
# Type: cell-based
# assay.conditions: Homo sapiens, 168 h, DLD-1 wild-type, N = 3
pEC50: −log10 of the molar value.
readout: pEC50

smiles.data: C[C@H](Oc1nn2c(c(O)c1=O)C(=O)N1CCOC[C@@H]1C2)c1ccc2ccc(Cl)cc2c1
readout: pEC50
number: 5.64
